Assay: physchem
Format: physicochemical
Conditions: phosphate buffer, pH 7.4
Readout Label: half-life (min)
Note: unit min is implicit; provide only the numeric part.

For the compound CC1(C)O[C@@H]2C[C@H]3[C@@H]4CCC5=CC(=O)C=C[C@]5(C)[C@@]4(F)[C@@H](O)C[C@]3(C)[C@]2(C(=O)COC(=O)OCn2cc(F)c(=O)[nH]c2=O)O1 [5FU/TRI] , what half-life is on record?
14.1

----------
Assay: physchem
Conditions: buffer, pH 3
Readout Label: half-life

For the compound CC1(C)O[C@@H]2C[C@H]3[C@@H]4CCC5=CC(=O)C=C[C@]5(C)[C@@]4(F)[C@@H](O)C[C@]3(C)[C@]2(C(=O)COC(=O)OCn2cc(F)c(=O)[nH]c2=O)O1 , what half-life is on record?
> 48 h

----------
Experiment: in vitro
Format: in vitro ADME
Conditions: human, serum, t½
Readout Label: half-life (min)
Note: unit min is implicit; provide only the numeric part.

For the molecule CC1(C)O[C@@H]2C[C@H]3[C@@H]4CCC5=CC(=O)C=C[C@]5(C)[C@@]4(F)[C@@H](O)C[C@]3(C)[C@]2(C(=O)COC(=O)OCn2cc(F)c(=O)[nH]c2=O)O1 , what half-life is on record?
8.8

----------
Assay: physchem
Type: physicochemical
Conditions: phosphate buffer, pH 3
Readout Label: half-life (h)
Note: unit h is implicit; provide only the numeric part.

For the molecule CC1(C)O[C@@H]2C[C@H]3[C@@H]4CCC5=CC(=O)C=C[C@]5(C)[C@@]4(F)[C@@H](O)C[C@]3(C)[C@]2(C(=O)COC(=O)OCn2cc(F)c(=O)[nH]c2=O)O1 , what half-life is on record?
204

----------
Test: in vitro
Type: in vitro ADME
Details: human, serum, half-life, t½
Readout Label: half-life

For the molecule CC1(C)O[C@@H]2C[C@H]3[C@@H]4CCC5=CC(=O)C=C[C@]5(C)[C@@]4(F)[C@@H](O)C[C@]3(C)[C@]2(C(=O)COC(=O)OCn2cc(F)c(=O)[nH]c2=O)O1 , what half-life is on record?
< 10 min

----------
Assay: physchem
Conditions: buffer, pH 7.4
Readout Label: half-life

For the molecule CC1(C)O[C@@H]2C[C@H]3[C@@H]4CCC5=CC(=O)C=C[C@]5(C)[C@@]4(F)[C@@H](O)C[C@]3(C)[C@]2(C(=O)COC(=O)OCn2cc(F)c(=O)[nH]c2=O)O1 , what half-life is on record?
< 3 min

----------
Experiment: physchem
Assay type: physicochemical
Conditions: phosphate buffer, pH 8.4
Readout Label: half-life (min)
Note: unit min is implicit; provide only the numeric part.

For the compound CC1(C)O[C@@H]2C[C@H]3[C@@H]4CCC5=CC(=O)C=C[C@]5(C)[C@@]4(F)[C@@H](O)C[C@]3(C)[C@]2(C(=O)COC(=O)OCn2cc(F)c(=O)[nH]c2=O)O1 [5FU/TRI] , what half-life is on record?
9.8
